Target: Kappa-type opioid receptor (Cavia porcellus)
Sequence (P41144 whole entry): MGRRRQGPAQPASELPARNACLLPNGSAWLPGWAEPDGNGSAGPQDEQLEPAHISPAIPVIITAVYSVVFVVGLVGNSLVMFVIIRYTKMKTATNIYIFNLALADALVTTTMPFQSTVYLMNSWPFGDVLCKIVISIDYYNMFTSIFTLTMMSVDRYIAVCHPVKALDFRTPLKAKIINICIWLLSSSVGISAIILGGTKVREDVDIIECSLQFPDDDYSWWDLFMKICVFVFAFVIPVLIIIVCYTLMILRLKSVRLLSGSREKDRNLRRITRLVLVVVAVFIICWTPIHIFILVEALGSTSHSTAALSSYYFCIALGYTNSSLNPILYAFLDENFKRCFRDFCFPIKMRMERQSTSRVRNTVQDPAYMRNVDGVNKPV
Under this convention, 1.0 denotes Ki strictly below 600 nM and 0.0 denotes Ki at or above 600 nM.

Threshold test, Ki < 600 nM: CN1CCC2(c3cccc(O)c3)CC(=O)/C(=C/c3ccccc3)C1C2 (centres undefined)
1.0

Threshold test, Ki < 600 nM: CN1CCC2(c3cccc(O)c3)CC(=O)CC1C2 (stereo in doubt; 4)
0.0

Threshold test, Ki < 600 nM: CN1CCC2(c3cccc(O)c3)CC(=O)CC1C2 (stereo in doubt)
1.0

Threshold test, Ki < 600 nM: CN1CC[C@]2(c3cccc(O)c3)CC(=O)/C(=C/c3ccccc3)[C@H]1C2
0.0

Threshold test, Ki < 600 nM: C[N+]1(C)CCC2(c3cccc(O)c3)CC(=O)/C(=C/c3ccccc3)C1C2.[I-] (centres undefined)
0.0

Threshold test, Ki < 600 nM: CN1CC[C@@]2(c3cccc(O)c3)CC(=O)/C(=C/c3ccccc3)[C@@H]1C2
0.0
